Sourced from patent US9879002B2

Each entry below lists one item and its recorded solubility at 24 h value.
# Assay Protocol: Solubility assay in simulated Intestinal Fluid pH 7.5
# Format: physicochemical
# Test Conditions: fassgf or other biorelevant, kinetic from dmso stock, shaken 24 hours at room temperature, from 10 mM DMSO stock, detection limit approximately 1 μM, read-out: Solubility test results: Conc. (μM), pH 7.5 (IF)
Measure Name: solubility at 24 h (µM)

>>> assay_result("CCOC(C(=O)c1ccc(-c2cc(O)c(Cl)c(OC)c2)o1)c1ccc(-c2nnc(C)s2)cc1 (centres unmarked)")
2.5
>>> assay_result("CCOC(C(=O)c1ccc(-c2cc(OC)c(Cl)c(O[C@H]3O[C@H](C(=O)O)[C@@H](O)[C@H](O)[C@H]3O)c2)o1)c1ccc(-c2nnc(C)s2)cc1 (some centres unmarked)")
78.3
>>> assay_result("CCOC(c1ccc(-c2nnc(C)s2)cc1)C(O)c1ccc(-c2cc(OC)c(Cl)c(OC)c2)o1 (centres unmarked)")
2.5
>>> assay_result("CCOC(C(=O)c1ccc(-c2cc(OC)c(Cl)c(OC)c2)o1)c1ccc(-c2nnc(CO)s2)cc1 (centres unmarked)")
5.8

###

Each record here notes measured IC50.
# Target Or Test System: PDE10 (Homo sapiens)
# Sequence (Q9Y233 whole entry): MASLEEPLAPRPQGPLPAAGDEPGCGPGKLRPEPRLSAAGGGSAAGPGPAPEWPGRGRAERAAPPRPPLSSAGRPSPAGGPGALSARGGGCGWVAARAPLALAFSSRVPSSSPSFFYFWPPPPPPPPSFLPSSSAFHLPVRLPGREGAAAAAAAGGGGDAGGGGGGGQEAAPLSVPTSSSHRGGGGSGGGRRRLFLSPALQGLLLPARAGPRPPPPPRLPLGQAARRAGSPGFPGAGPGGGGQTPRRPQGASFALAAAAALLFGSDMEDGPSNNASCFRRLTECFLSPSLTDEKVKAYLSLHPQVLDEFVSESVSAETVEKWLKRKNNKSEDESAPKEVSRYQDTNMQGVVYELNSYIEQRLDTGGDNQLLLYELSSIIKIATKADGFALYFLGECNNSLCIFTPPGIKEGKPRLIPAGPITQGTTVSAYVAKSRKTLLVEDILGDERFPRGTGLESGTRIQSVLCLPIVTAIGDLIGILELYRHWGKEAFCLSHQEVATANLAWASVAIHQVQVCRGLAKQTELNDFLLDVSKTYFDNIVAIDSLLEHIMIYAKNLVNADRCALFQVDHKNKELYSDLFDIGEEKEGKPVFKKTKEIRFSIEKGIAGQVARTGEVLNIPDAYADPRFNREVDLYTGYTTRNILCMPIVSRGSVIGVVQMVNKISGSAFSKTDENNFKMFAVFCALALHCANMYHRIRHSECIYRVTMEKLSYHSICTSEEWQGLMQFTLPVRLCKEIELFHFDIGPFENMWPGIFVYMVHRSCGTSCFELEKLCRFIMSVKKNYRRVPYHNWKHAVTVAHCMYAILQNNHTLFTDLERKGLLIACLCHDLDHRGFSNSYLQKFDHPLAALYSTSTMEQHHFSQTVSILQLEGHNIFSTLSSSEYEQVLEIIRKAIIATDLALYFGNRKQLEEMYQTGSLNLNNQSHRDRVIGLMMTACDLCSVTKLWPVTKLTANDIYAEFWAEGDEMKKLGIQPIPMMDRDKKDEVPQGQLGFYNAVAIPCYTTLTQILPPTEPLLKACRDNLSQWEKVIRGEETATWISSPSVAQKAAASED
# Assay Protocol: PDE10 biochemical assay (scintillation proximity assay, [3H]-cGMP substrate)
# Test Conditions: SPA, [3H]-cGMP, 20 minutes at 30° C., 8 concentrations in duplicate; read-out: Average IC50
Measure Name: IC50 (nM)

>>> assay_result("CCOC(c1ccc(-c2nnc(C)s2)cc1)C(O)c1ccc(-c2cc(OC)c(Cl)c(OC)c2)o1 (stereo not shown)")
127
>>> assay_result("CCOC(C(=O)c1ccc(-c2cc(OC)c(Cl)c(O[C@H]3O[C@H](C(=O)O)[C@@H](O)[C@H](O)[C@H]3O)c2)o1)c1ccc(-c2nnc(C)s2)cc1 (stereo partly shown)")
652
>>> assay_result("CCOC(C(=O)c1ccc(-c2cc(O)c(Cl)c(OC)c2)o1)c1ccc(-c2nnc(C)s2)cc1 (stereo not shown)")
37.7
>>> assay_result("CCOC(C(=O)c1ccc(-c2cc(OC)c(Cl)c(OC)c2)o1)c1ccc(-c2nnc(CO)s2)cc1 (stereo not shown)")
1.3
